Target: T1, TNC III1-5 (human, UniProt P24821 622-1074)
T1 construct: The secreted protein in the assays lacks the leader; also called TG-TNC III1-5; engineered TNC III1-5
T1 sequence: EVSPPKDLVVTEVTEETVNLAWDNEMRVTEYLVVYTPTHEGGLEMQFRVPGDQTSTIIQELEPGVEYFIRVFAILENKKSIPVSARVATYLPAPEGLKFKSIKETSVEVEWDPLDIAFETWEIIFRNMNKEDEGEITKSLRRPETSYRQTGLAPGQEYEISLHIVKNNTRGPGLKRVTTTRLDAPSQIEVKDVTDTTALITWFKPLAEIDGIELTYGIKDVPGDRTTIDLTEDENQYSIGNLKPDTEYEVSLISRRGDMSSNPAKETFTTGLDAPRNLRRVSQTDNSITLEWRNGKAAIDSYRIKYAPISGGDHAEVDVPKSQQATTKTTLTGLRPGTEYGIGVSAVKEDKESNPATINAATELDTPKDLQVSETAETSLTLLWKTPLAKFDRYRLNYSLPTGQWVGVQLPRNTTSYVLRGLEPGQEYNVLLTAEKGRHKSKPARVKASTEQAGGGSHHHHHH
Experiment: ELISA: cytokine coated (50 nM), 100 nM TNC III1-5 in solution, HRP-anti-His, A450; black bars without, white bars with 4 µM heparin
metric: binding result

- PlGF-2 (ligand, UniProt P49763-3 19-170, looked up) LPAVPPQQWALSAGNGSSEVEVVPFQEVWGRSYCRALERLVDVVSEYPSEVEHMFSPSCVSLLRCTGCCGDENLHCVPVETANVTMQLLKIRSGDRPSYVELTFSQHVRCECRPLREKMKPERRRPKGRGKRRREKQRPTDCHLCGDAVPRR: binds
- BDNF (ligand, UniProt P23560 129-247, looked up, also called brain-derived neurotrophic factor) HSDPARRGELSVCDSISEWVTAADKKTAVDMSGGTVTVLEKVPVSKGQLKQYFYETKCNPMGYTKEGCRGIDKRHWNSQCRTTQSYVRALTMDSKKRIGWRFIRIDTSCVCTLTIKRGR: binds
- TGF-β2 (ligand, UniProt P61812 303-414, looked up) ALDAAYCFRNVQDNCCLRPLYIDFKRDLGWKWIHEPKGYNANFCAGACPYLWSSDTQHSRVLSLYNTINPEASASPCCVSQDLEPLTILYYIGKTPKIEQLSNMIVKSCKCS: binds
